Recorded values, source patent US20080146555A1.

# Assay Summary: Maximum tolerated dose in mice
# Applied Conditions: mouse, in vivo, intravenous; nu/nu mice; read-out: MTD, single dose
Structures can show the parent of a compound that is named as a salt.
Measurement Type: MTD

Exercise: Given the entry COCCN1CCN(Cc2ccc(-c3n[nH]c4c3C(=O)c3c(NC(=O)NN5CCOCC5)cccc3-4)cc2)CC1 [Compound B16, dihydrochloride] , report its measured MTD.
Solution: ~120 mg/kg

###

# Assayed System: c-Src (Homo sapiens, UniProt P12931)
# Construct: purchased Upstate 14-326
# Sequence (P12931 whole entry): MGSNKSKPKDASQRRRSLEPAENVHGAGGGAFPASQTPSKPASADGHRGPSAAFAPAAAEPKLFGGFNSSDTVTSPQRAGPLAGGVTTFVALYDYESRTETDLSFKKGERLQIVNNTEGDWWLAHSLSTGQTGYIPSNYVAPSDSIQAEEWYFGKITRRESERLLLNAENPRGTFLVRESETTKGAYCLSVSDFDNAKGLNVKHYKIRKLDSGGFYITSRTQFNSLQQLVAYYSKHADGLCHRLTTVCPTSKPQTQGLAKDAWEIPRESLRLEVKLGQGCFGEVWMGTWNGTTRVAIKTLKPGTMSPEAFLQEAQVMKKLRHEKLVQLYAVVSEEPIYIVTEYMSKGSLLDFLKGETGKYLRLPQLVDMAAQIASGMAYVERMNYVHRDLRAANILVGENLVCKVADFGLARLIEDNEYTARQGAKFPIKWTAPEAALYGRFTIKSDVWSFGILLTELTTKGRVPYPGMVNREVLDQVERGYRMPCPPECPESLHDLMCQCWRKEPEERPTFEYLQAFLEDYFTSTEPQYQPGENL
# Assay Summary: c-Src kinase assay
# Type: biochemical
# Applied Conditions: read-out: SRC Inhibition (IC50)
Structures can show the parent of a compound that is named as a salt.
Measurement Type: IC50

Exercise: Find the measured IC50: item COCCN1CCN(Cc2ccc(-c3n[nH]c4c3C(=O)c3c(NC(=O)NN5CCOCC5)cccc3-4)cc2)CC1 [Compound B16, dihydrochloride] , target or system c-Src (Homo sapiens, UniProt P12931).
Solution: < 50 nM

Exercise: What do we get for CC(C)N1CCN(C(=O)COc2ccc(-c3n[nH]c4c3C(=O)c3c(NC(=O)NN5CCOCC5)cccc3-4)cc2)CC1 [Compound A37] ?
Solution: < 50 nM
